Origin of the recorded values: paper PMC4568520

- subject_of_test: human Hv1 (wild type, dimeric) D123R (Homo sapiens, UniProt Q96D96, D123R)
- Construct: gene HVCN1; full-length human Hv1 homodimer, 273 residues; pGEMHE cRNA in Xenopus laevis oocytes, inside-out patches
- procedure_details: cell-based
- Parameters: species or system Xenopus oocytes; patch-clamp proton currents, Hill fit of current inhibition, +120 mV, pHi = pHo = 6.0
- test_context: apparent Kd, Hill fit of current inhibition; read-out: Kd (µM) (±SE)
quantity_kind: Kd (µM)
Note: unit µM is implicit; provide only the numeric part.

Find the recorded Kd belonging to `N=C(N)Nc1nc2ccccc2s1` and report it. 35.8
